Assay: Pharmacokinetics in mice
Assay type: in vivo
Settings: male, CD-1, mouse, plasma, ip, 14b, i.p. (20 mg/kg)
recorded.metric: Cmax (ng/mL)
Give bare numbers, in ng/mL.

## Task Dear colleague, I am looking for the recorded Cmax of the following compound: O=C(NCc1ccccc1)C(=O)[C@H](C[C@@H]1CCCNC1=O)NC(=O)[C@H](CC1CCCCC1)NC(=O)c1cc2ccccc2o1 [14b]
## Result 3270

---

Experiment: Pharmacokinetics in rats
Assay type: in vivo
Details: male, SD, rat, plasma, ip, i.p. (5 mg/kg)
So I've got a bunch of compounds here, and I need their Tmax values.
Numbers only, in min.

>>> print(df.to_string())
                                   compound  recorded_metric  display_unit  quantitative_readout
0  O=C(NCc1ccccc1)C(=O)[C@H](C[C@@H]1CCCNC1=O)NC(=O)[C@H](CC1CCCCC1)NC(=O)c1cc2ccccc2o1 [14b]             Tmax           min                    15

## Task Dear colleague, I am looking for the recorded Tmax of the following compound: O=C(NCc1ccccc1)C(=O)[C@H](C[C@@H]1CCCNC1=O)NC(=O)[C@H](Cc1ccc(F)cc1)NC(=O)c1cc2ccccc2o1 [14a]
## Result 15
